Please respond with reported IC50 for every item in the list.
Tested on: NCI-H358 cells
Experiment: NCI-H358 CTG proliferation assay (120 h) (NSCLC, G12C)
Assay type: cell-based
Settings: Homo sapiens, assay 1, read-out: H358 (assay 1) IC50
Entry rule: numbers only, all in µM.

Value (IC50, NCI-H358 cells) for record "Cc1ncsc1-c1ccc([C@H](CO)NC(=O)[C@@H]2C[C@@H](O)CN2C(=O)[C@H](C(C)C)n2cc(OCCCCN3CCCN(c4nccc(-c5noc([C@@]6(C)CCCc7sc(N)c(C#N)c76)n5)n4)[C@@H](C)C3)nn2)cc1" = 0.0288

Value (IC50, NCI-H358 cells) for record Cc1ncsc1-c1ccc([C@@H](NC(=O)[C@@H]2C[C@@H](O)CN2C(=O)[C@H](C(C)C)n2cc(OCCCN3CCCN(c4nccc(-c5noc([C@@]6(C)CCCc7sc(N)c(C#N)c76)n5)n4)[C@@H](C)C3)nn2)[C@H](O)C(C)C)cc1 (single isomer, unassigned) = 0.0508

Value (IC50, NCI-H358 cells) for record Cc1ncsc1-c1ccc(CNC(=O)[C@@H]2C[C@@H](O)CN2C(=O)C(c2cc(OCCCCN3CCCN(c4nccc(-c5noc([C@@]6(C)CCCc7sc(N)c(C#N)c76)n5)n4)[C@@H](C)C3)no2)C(C)C)cc1F (stereo partly shown) = 0.117

Value (IC50, NCI-H358 cells) for record Cc1ncsc1-c1ccc(CNC(=O)[C@@H]2C[C@@H](O)CN2C(=O)C(c2cc(OCCN3CCCN(c4nccc(-c5noc([C@@]6(C)CCCc7sc(N)c(C#N)c76)n5)n4)[C@@H](C)C3)no2)C(C)C)cc1 (stereo partly shown) = 2.93
